B1: POU domain, class 4, transcription factor 1, residues 266 to 347; numbered along this chain, Q01851 (parent)
chain: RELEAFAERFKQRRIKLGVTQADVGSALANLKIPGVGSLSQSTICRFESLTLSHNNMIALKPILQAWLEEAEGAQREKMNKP

Variants of: B1
Assay: abundance fitness (aPCA) (normalised: wild type 0, dead -1); higher = more abundant; growth selection in yeast, the domain comes from the species named
Conditions: Homo sapiens
So basically, the class depends on measured abundance fitness, and the ranges are low range: < -0.2; mid range: ≥ -0.2 and < -0.03; high range: ≥ -0.03

Before answering, review these 5 worked examples.
Place this variant in its band: Q12F mid range

And for R1Q ? low range

And for K32G ? mid range

And for K61F ? low range

And for F6L ? low range

New cases:
Place this variant in its band: T43H high range

And for T43V ? mid range

And for E48W ? low range
